System: PPARg:RXRa 30nM:10nM, anti-RXR (NR concentration 30 nM, RXRa partner concentration 10 nM)
Assay: PBM binding z-score (relative to random genomic background probes); higher = stronger binding; sequences stand for … in GC…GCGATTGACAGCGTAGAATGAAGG
Measurement label: PBM binding z-score

[
  {
    "Sequence record": "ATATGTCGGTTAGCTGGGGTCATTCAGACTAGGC",
    "Observed result": 0.599
  },
  {
    "Sequence record": "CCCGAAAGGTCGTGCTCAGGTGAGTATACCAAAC",
    "Observed result": 0.899
  },
  {
    "Sequence record": "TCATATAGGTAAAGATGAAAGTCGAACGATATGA",
    "Observed result": 3.79
  },
  {
    "Sequence record": "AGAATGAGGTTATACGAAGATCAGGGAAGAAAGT",
    "Observed result": 0.749
  },
  {
    "Sequence record": "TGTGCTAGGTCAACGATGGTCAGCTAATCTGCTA",
    "Observed result": 0.195
  },
  {
    "Sequence record": "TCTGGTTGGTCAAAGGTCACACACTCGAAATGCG",
    "Observed result": 8.98
  },
  {
    "Sequence record": "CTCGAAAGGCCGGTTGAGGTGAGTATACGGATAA",
    "Observed result": -0.213
  },
  {
    "Sequence record": "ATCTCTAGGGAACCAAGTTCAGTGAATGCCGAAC",
    "Observed result": 0.00419
  },
  {
    "Sequence record": "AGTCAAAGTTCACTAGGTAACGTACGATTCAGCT",
    "Observed result": 3.88
  },
  {
    "Sequence record": "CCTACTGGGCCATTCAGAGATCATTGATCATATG",
    "Observed result": -0.621
  },
  {
    "Sequence record": "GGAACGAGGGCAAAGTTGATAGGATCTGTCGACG",
    "Observed result": 5.71
  },
  {
    "Sequence record": "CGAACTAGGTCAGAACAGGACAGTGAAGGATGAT",
    "Observed result": 1.53
  }
]

// provenance: the supplement of paper PMC6555819
